Experiment: Acute toxicity, single oral dose
Assay type: in vivo, mice
Details: mouse, in vivo; single oral dose of 250 mg (E: 1000 mg), 14 days observation, mice; read-out: animals that died out of 10
Description: The acute toxicity of the compounds was determined in groups of 10 mice after oral administration of a single dose (observation period: 14 days): […]
measure: mortality at 336 h (%)
Respond with the bare value in %.

Known results for compounds:
compound: CC(=O)N=S(=O)(CCCCOc1ccc2c(c1)CCC(=O)N2)c1ccc(Cl)c(Cl)c1 (stereo not drawn) [E]
measured.result: 0
//
compound: N=S(=O)(CCCCOc1ccc2c(c1)CCC(=O)N2)c1ccc(Cl)cc1 (stereo not drawn) [D]
measured.result: 0
//
compound: N=S(=O)(CCCCOc1ccc2c(c1)CCC(=O)N2)c1ccc(F)cc1 (stereo not drawn) [C]
measured.result: 0
//
compound: Cc1cc(S(=N)(=O)CCCCOc2ccc3[nH]c(=O)ccc3c2)ccc1Br (stereo not drawn) [Compound I]
measured.result: 0
//
compound: N=S(=O)(CCCCOc1ccc2[nH]c(=O)ccc2c1)c1ccc(F)cc1 (stereo not drawn) [G]
measured.result: 0
//
compound: CS(=N)(=O)CCCCOc1ccc2c(c1)CCC(=O)N2 (stereo not drawn) [Compound A]
measured.result: 0
//
compound: Cc1ccc(S(=O)(=O)N=S(=O)(CCCCOc2ccc3c(c2)CCC(=O)N3)c2ccc(Cl)c(Cl)c2)cc1 (stereo not drawn) [F]
measured.result: 0
//
compound: N=S(=O)(CCCCOc1ccc2c(c1)CCC(=O)N2)c1ccccc1 (stereo not drawn) [B]
measured.result: 0

// switching to the query compound
Value of measured mortality at 336 h for the entry N=S(=O)(CCCCOc1ccc2[nH]c(=O)ccc2c1)c1ccc(Cl)cc1 (stereo not drawn) [H] : 0

Where these numbers come from: patent US4551464A
